- Test system: HL-60
- Assay overview: In vitro inhibition, CellTiter-Glo (CTG) assay, 72 hr exposure
- Assay type: cell-based
- Experimental setup: Homo sapiens, HL-60, 72 h
pIC50: −log10 of the molar value.
pIC50 listing for selected molecules.

Some solved cases for reference:
{"columns": ["Molecule", "Tested system", "Value reported"],
 "data": [
  ["CCOC(=O)COP(=O)(N[C@@H](CC(C)C)C(=O)OCC)OC[C@H]1S[C@@H](n2ccc(N)nc2=O)[C@@H](O)[C@@H]1O (single isomer, unassigned) [Compound 102b (diastereoisomer 1)]", "HL-60", "5.00 to 6.00"],
  ["Nc1ccn([C@@H]2S[C@H](COP(=O)(O)NCc3ccccc3)[C@@H](O)[C@@H]2O)c(=O)n1", "HL-60", "5.00 to 6.00"]
]}

Note: attention shifts to another entry.
Give its pIC50 value. Item: COC(=O)COP(=O)(N[C@@H](CC(C)C)C(=O)OC)OC[C@H]1S[C@@H](n2ccc(N)nc2=O)[C@@H](O)[C@@H]1O (single isomer, unassigned) [Compound 104b (diastereoisomer 1)]
5.00 to 6.00
